- test-system: T1, Asf1 (1-156), conserved N-terminal domain of human Asf1 (human, UniProt Q9Y294 1-156)
- T1 construct: range 1-156; The ITC legend says Asf1 1-156; Recombinant, cloned in peTM30; also called Asf1a 1-156
- T1 sequence (Q9Y294 1-156 limits assumed): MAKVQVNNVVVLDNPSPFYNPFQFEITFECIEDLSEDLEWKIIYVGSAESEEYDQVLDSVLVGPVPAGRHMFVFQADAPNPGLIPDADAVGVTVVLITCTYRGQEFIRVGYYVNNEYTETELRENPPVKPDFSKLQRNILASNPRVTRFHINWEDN
- assay-text: ITC (microcalorimetry)
Flag rule - Kd less than 700 nM flags 1.0; the remaining entries get 0.0.

binder="GAMGTRTPKERRLARRIRGAGGRTLNGFG [inhibitor peptide Asf1/H3-H4 of SEQ ID No 56]" discrete_label=1.0
binder="GAMGTRTPKEARLARRIRGAGGRTLNGFG [inhibitor peptide Asf1/H3-H4 of SEQ ID No 57]" discrete_label=1.0
binder="RRPRRPRRPRRPRRPASTERKWAELARRIRGAGGVTLNGFGGCA [inhibitor peptide Asf1/H3-H4, peptide RRP5-i5]" discrete_label=1.0
binder="RRPRRPRRPRRPRRPGAMGTITPKEAQLARRIRGAGGVTLNGFG [inhibitor peptide Asf1/H3-H4, peptide RRP5-i42V]" discrete_label=1.0
binder="GAMGTLTPKEAELARRIRGAGGRTLNGFG [inhibitor peptide Asf1/H3-H4, peptide i4]" discrete_label=1.0
binder="GAMGTITPKEAQLARRIRG [Stabilized H3 fragment of SEQ ID No 71]" discrete_label=0.0
binder="GAMGTLTPKEAELARRIRGAGASGRTLNGFG [inhibitor peptide Asf1/H3-H4 of SEQ ID No 74]" discrete_label=0.0
binder="GAMGTITPKEAQLARRIRGAGGRTLNGFG [inhibitor peptide Asf1/H3-H4, peptide i4_2]" discrete_label=1.0
binder="LTAAEHAKRSTLTPKEAELARRIEGAGASVTLNGFG [inhibitor peptide Asf1/H3-H4 of SEQ ID No 55]" discrete_label=0.0
binder="ASTERKWAELARRIRGAGGVTLDGFG [Peptide i5_D]" discrete_label=1.0
binder="ASTERKWAELARRIRGAGGRTLNGFG [Peptide i5_loopR]" discrete_label=1.0
binder="GAMGTLTPKEAELARRIEGAGASVTLNGFG [inhibitor peptide Asf1/H3-H4 of SEQ ID No 45]" discrete_label=0.0
binder="ASTEEKWARLARRIRGAGGVTLNGFG [Peptide i5_s3]" discrete_label=1.0
binder="GAMGTLTPKEAELARRIRG [Stabilized H3 fragment of SEQ ID No 72]" discrete_label=0.0
binder="LTAAEHAKRSTLTPKEAELARRIRGAGGVTLNGFG [inhibitor peptide Asf1/H3-H4 of SEQ ID No 53]" discrete_label=1.0
binder="GAMGTLTPKEAELARRIRGAGASRTLNGFG [inhibitor peptide Asf1/H3-H4 of SEQ ID No 43]" discrete_label=1.0
binder="GAMGTLTPKEAELARRIRGAGRTLNGFG [inhibitor peptide Asf1/H3-H4 of SEQ ID No 49]" discrete_label=0.0
binder="GAMGTIMPKDIQLARRIRG (The N-terminal GAMG comes from the cloning vector) [peptide i1 (fragment of histone H3, α3 helix)]" discrete_label=0.0
binder="RRPRRPRRPRRPRRPGAMGTIMPKDIQLARRIRGGCA [inhibitor peptide Asf1/H3-H4, peptide RRP5-i1]" discrete_label=1.0
binder="LTAAEHAKRSTLTPKEAQLARRIEGAGASVTLNGFG [inhibitor peptide Asf1/H3-H4 of SEQ ID No 54]" discrete_label=1.0
binder="GAMGTITPKEAQLARRIRGAGGVTLNGFG [inhibitor peptide Asf1/H3-H4, peptide i42V]" discrete_label=1.0
binder="ASTRRKWAELARRIRGAGGVTLNGFG [peptide of SEQ ID No 33]" discrete_label=0.0
binder="GAMGTITPKEEQLRRRIEGAGASVTLNGFG [inhibitor peptide Asf1/H3-H4 of SEQ ID No 46]" discrete_label=1.0
binder="GAMGTLTPKEAELARRIRGAGGVTLNGFGASTG [inhibitor peptide Asf1/H3-H4 of SEQ ID No 62]" discrete_label=1.0
binder="GAMGTLTPKEAELARRIRGARTLNGFG [inhibitor peptide Asf1/H3-H4 of SEQ ID No 73]" discrete_label=0.0
binder="ASTERKWAELARRIRGAGGATLNGFG [Peptide i5_loopA]" discrete_label=1.0
binder="GAMGLTAAEHAKRSTLTPKEAQLARRIRGAGGVTLNGFG [inhibitor peptide Asf1/H3-H4 of SEQ ID No 52]" discrete_label=1.0
